Molecular target: Integrin beta-2 (Homo sapiens) + Integrin alpha-M (Homo sapiens) (UniProt P05107+P11215)
Sequence (P05107 whole entry, looked up, other chains not shown): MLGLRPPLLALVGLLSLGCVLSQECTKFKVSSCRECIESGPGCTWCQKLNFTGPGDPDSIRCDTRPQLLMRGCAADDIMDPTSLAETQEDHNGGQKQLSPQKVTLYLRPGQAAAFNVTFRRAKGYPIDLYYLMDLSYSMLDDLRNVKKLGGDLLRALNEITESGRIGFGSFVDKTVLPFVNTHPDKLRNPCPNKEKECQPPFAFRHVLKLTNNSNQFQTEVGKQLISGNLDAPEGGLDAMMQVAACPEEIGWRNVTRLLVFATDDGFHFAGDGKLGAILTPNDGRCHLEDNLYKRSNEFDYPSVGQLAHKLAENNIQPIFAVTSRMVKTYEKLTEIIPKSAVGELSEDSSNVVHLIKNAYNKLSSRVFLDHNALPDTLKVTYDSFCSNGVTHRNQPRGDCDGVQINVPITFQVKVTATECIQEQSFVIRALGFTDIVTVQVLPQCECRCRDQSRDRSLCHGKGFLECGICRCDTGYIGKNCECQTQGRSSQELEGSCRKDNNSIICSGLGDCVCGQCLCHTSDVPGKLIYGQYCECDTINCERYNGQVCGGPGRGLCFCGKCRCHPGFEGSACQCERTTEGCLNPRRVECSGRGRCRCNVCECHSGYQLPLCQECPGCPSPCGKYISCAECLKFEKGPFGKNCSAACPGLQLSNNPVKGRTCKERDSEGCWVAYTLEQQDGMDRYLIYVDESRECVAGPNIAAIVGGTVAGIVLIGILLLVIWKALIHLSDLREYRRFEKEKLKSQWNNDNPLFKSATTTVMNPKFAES
Experiment: inhibitors of CD11b/CD18 adhesion to fibrinogen, primary screen, K562 cells, luminescence (AID 1497)
Settings: ATPlite luminescence, at 10 µM, active compounds read high, Mn2+ added to activate the integrin
Hit rate of the full screen: of about 93,000 compounds, about 500 (0.54%) were called active. What follows is part of a selection rich in actives, with near analogues and random picks from the rest.
Quick list: inhibition per entry.

| compound | assayed.target | inhibition / % |
| --- | --- | --- |
| Cc1c(C(=O)NCCN2C(=O)S/C(=C\c3cccs3)C2=O)cccc1[N+](=O)[O-] | Integrin beta-2 (Homo sapiens) + Integrin alpha-M (Homo sapiens) (UniProt P05107+P11215) | 7 |
| O=C(CSc1nc2ccccc2c(=O)n1CCCO)N1CCc2ccccc21 | Integrin beta-2 (Homo sapiens) + Integrin alpha-M (Homo sapiens) (UniProt P05107+P11215) | 21.1 |
| COC(=O)N/N=C/c1ccc(-c2ccc(Cl)c(Cl)c2)o1 | Integrin beta-2 (Homo sapiens) + Integrin alpha-M (Homo sapiens) (UniProt P05107+P11215) | 9.8 |
| Cc1ccc(C)c(NC(=O)C(OC(=O)c2ccc(C)s2)c2ccccc2)c1 (centres undefined) | Integrin beta-2 (Homo sapiens) + Integrin alpha-M (Homo sapiens) (UniProt P05107+P11215) | 16.7 |
| COc1ccc(/C=C2/C(=O)OCc3cc(OC)c(OC)cc32)c(OC)c1 | Integrin beta-2 (Homo sapiens) + Integrin alpha-M (Homo sapiens) (UniProt P05107+P11215) | 0.8 |
| Cc1ccc(S(=O)(=O)C2C(=O)NC3(C)CC2c2ccccc2O3)cc1 (centres undefined) | Integrin beta-2 (Homo sapiens) + Integrin alpha-M (Homo sapiens) (UniProt P05107+P11215) | 19.1 |
| O=C(CCCCCNC(=O)c1ccccc1)N/N=C/c1ccccc1 | Integrin beta-2 (Homo sapiens) + Integrin alpha-M (Homo sapiens) (UniProt P05107+P11215) | 9.3 |
| Cc1ccc(NC(=S)NC(=O)/C=C/c2ccc(Cl)cc2)cc1 | Integrin beta-2 (Homo sapiens) + Integrin alpha-M (Homo sapiens) (UniProt P05107+P11215) | 7.2 |
| Cc1ccccc1NC(=O)CSC1=NCCN1 | Integrin beta-2 (Homo sapiens) + Integrin alpha-M (Homo sapiens) (UniProt P05107+P11215) | -19.9 |
